- System: Human alphaherpesvirus 1
- assayText: Antiviral activity against Herpes simplex virus 1 KOS infected in primary rabbit kidney cells assessed as inhibition of virus-induced cytopathogenicity
- Assay type: functional
- assaySetup: Human alphaherpesvirus 1, KOS
List of MIC values.

Here are 2 molecules together with their reported answers.
O=c1[nH]c(=O)n([C@H]2C[C@H](O)[C@@H](CO)O2)cc1I	1.4 µM
C=CCOc1cn([C@H]2C[C@H](O)[C@@H](CO)O2)c(=O)[nH]c1=O	14 µM

Jot down MIC (Human alphaherpesvirus 1) of O=C(O)COc1cn([C@H]2C[C@H](O)[C@@H](CO)O2)c(=O)[nH]c1=O . > 600 µM

Under Human alphaherpesvirus 1, report MIC for O=c1[nH]c(=O)n([C@@H]2O[C@H](CO)[C@@H](O)[C@H]2O)cc1OCc1ccccc1 > 600 µM

State MIC (Human alphaherpesvirus 1) of O=c1[nH]c(=O)n([C@H]2C[C@H](O)[C@@H](CO)O2)cc1OCc1ccccc1 . > 120 µM

Retrieve MIC on Human alphaherpesvirus 1; query C=CCOc1cn([C@@H]2O[C@H](CO)[C@@H](O)[C@H]2O)c(=O)[nH]c1=O > 600 µM

Enter measured MIC, system Human alphaherpesvirus 1, for the molecule shown: O=c1[nH]c(=O)n([C@H]2C[C@H](O)[C@@H](CO)O2)cc1OCc1ccc([N+](=O)[O-])cc1 > 260 µM
